target: T1, human ERBB3 His tagged, monomeric (human, UniProt P21860 20-643, biotinylated in the Alphascreen assays (sites not given)); assay: SPR (Biacore), captured IgG, monomeric ERBB3-His analyte
T1 construct: Used unbiotinylated as Biacore analyte and biotinylated in Alphascreen; treated as one molecule; also called human ERBB3-His (Acrobiosystems); biotinylated monomeric human ERBB3
measure: kon (M⁻¹ s⁻¹)
Numbers only here, please. The scale is M⁻¹ s⁻¹.

>  <binder>
09D12 IgG1null (antibody, V domains shown, Human IgG1null and human Ckappa) VH: QVQLVESGGGLVKPGGSLRLSCAASGFTFSDYGMSWIRQAPGKGLEWVSTISDGGSYTYYADSVKGRFTISRDNAKNSLYLQMNSLRAEDTAVYYCAREYGDYDGFDYWGQGTLVTVSS VL: DIQMTQSPSSLSASVGDRVTITCRASQSISSYLNWYQQKPGKAPKLLIYAASSLDSGVPSRFSGSGSGTDFTLTISSLQPEDFATYYCLQYDSTPLTFGGGTKVEIK

>  <reported_result>
1.3e+07

$$$$

Please give the measured kon for this binder: MH1 IgG1null (antibody, V domains shown, Designer (Maximally Humanized) clone; Human IgG1null and human Ckappa) VH: QVQLVESGGGLVKPGGSLRLSCAASGFTFSDYGMSWIRQAPGKGLEWVSTISDSGSYIYYADSVKGRFTISRDNAKNSLYLQMNSLRAEDTAVYYCARELGDYDGFDYWGQGTLVTVSS VL: DIQMTQSPSSLSASVGDRVTITCRASQSISSYLSWYQQKPGKAPKLLIYAASSLQSGVPSRFSGSGSGTDFTLTISSLQPEDFATYYCLQYDSTPLTFGGGTKVEIK
6.8e+06
